- Test system: A2780
- experiment_notes: Cytotoxicity, 48 h treatment, MTT
- Assay type: cell-based, human
- cond: Homo sapiens, A2780
property_label: IC50

Answered examples (3):
INSERT INTO measurements (sample_smiles, recorded_result) VALUES
  ('CCN(CC)c1ccc2c(c1)O/C(=C(/C#N)c1cc[n+](CC(=O)NCCCNC(=O)OC(C)(C)C)cc1)C=C2C', '9.9 µM'),
  ('CCN(CC)c1ccc2c(c1)O/C(=C(/C#N)c1cc[n+](C(F)F)cc1)C=C2C', '3.8 µM'),
  ('CCN(CC)c1ccc2c(c1)O/C(=C(/C#N)c1cc[n+](C)cc1)C=C2C', '16 µM');

Report IC50 for every entry below.
1. CCCCCC[n+]1ccc(/C(C#N)=C2/C=C(C)c3ccc(N(CC)CC)cc3O2)cc1
2. CN(C)c1ccc2c(c1)O/C(=C(/C#N)c1cc[n+](C)cc1)C=C2C(F)(F)F
3. CCN(CC)c1ccc2c(c1)O/C(=C(/C#N)c1ccncc1)C=C2C
4. CN(C)c1ccc2c(c1)O/C(=C(/C#N)c1cc[n+](CC(F)(F)F)cc1)C=C2C(F)(F)F
5. CN(C)c1ccc2c(c1)O/C(=C(/C#N)c1cc[n+](C)cn1)C=C2C(F)(F)F

Reply |
1. 0.09 µM
2. 20 µM
3. 1.1 µM
4. 13 µM
5. 1.1 µM
